FYI, the data here is from patent US20220298107A1.

# experimental system: human DHODH (Homo sapiens)
# Sequence (Q02127 whole entry): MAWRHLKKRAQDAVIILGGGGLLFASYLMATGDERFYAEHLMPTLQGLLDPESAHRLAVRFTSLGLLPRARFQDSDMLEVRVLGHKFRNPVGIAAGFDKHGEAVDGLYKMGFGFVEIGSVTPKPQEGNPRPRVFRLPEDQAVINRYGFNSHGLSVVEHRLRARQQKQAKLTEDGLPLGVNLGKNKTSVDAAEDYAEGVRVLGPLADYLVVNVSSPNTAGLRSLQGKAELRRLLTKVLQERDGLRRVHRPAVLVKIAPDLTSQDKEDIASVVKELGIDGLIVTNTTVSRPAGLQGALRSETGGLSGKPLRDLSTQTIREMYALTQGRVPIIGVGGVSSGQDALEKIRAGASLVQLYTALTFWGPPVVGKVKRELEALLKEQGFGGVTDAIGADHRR
# assay remarks: biochemical
Kindly state pEC50 for each of the entries shown.
Numbers only, as −log10 of the molar value.

>>> df
                                   compound  measured_number
0  COc1ncc(C)c(NC(=O)c2cc(F)c(NC(=O)N3CCC[C@@H]3CO)cc2O[C@@H](C)C(F)(F)F)c1Cl             8.59
1  CCN(CC(F)F)C(=O)Nc1cc(O[C@@H](C)C(F)(F)F)c(C(=O)Nc2c(C)ccnc2Cl)cc1F             7.77
2  COc1ncc(C)c(NC(=O)c2cc(F)c(NC(=O)N3CCC[C@@H]3CO)cc2O[C@@H](C)C(F)(F)F)c1C             8.44
3  C[C@H](Oc1cc(NC(=O)N2CCC(CO)C2)c(F)cc1C(=O)Nc1c(F)cccc1Cl)C(F)(F)F (stereo partly shown)             6.02
4  COC1CCN(C(=O)Nc2cc(O[C@@H](C)C(F)(F)F)c(C(=O)Nc3c(F)cccc3Cl)cc2F)C1 (stereo partly shown)             7.07
5  C[C@H](Oc1cc(NC(=O)N2CC(F)C2)c(F)cc1C(=O)Nc1c(F)cccc1Cl)C(F)(F)F             8.14
6  CCCN(C)C(=O)Nc1cc(O[C@@H](C)C(F)(F)F)c(C(=O)Nc2c(F)cccc2Cl)cc1F             8.10
7  C[C@H](Oc1cc(NC(=O)N(C)CCC#N)c(F)cc1C(=O)Nc1c(F)cccc1Cl)C(F)(F)F             6.70

For each entry beneath this line, provide reported pEC50.
1. CCN(CC(F)F)C(=O)Nc1cc(O[C@@H](C)C(F)(F)F)c(C(=O)Nc2c(C)cnc(OC)c2Cl)cc1F
2. C[C@H](Oc1cc(NC(=O)N2CCC(O)C2)c(F)cc1C(=O)Nc1c(F)cccc1Cl)C(F)(F)F (stereo partly shown)
3. CC(C)NC(=O)Nc1cc(O[C@@H](C)C(F)(F)F)c(C(=O)Nc2c(F)cccc2Cl)cc1F

1: 8.15; 2: 6.92; 3: 6.31

###

# Test system: MOLM-13 cells
# assay remarks: MOLM-13 Cellular Assay
# Format: cell-based
# details: Homo sapiens, MOLM-13, 72 h, read-out: MOLM-13 Cellular Assay EC50 (nM)
Entries whose EC50 is below 2 nM take 1; entries at or above 2 nM take 0.

Say whether its EC50 is strictly beneath 2 nM. Entry: COC1CCN(C(=O)Nc2cc(O[C@@H](C)C(F)(F)F)c(C(=O)Nc3c(F)cccc3Cl)cc2F)C1 (stereo partly shown)
0

Say whether its EC50 is strictly beneath 2 nM. Entry: "C[C@H](Oc1cc(NC(=O)N(C)CCO)c(F)cc1C(=O)Nc1c(F)cccc1Cl)C(F)(F)F"
1

###

# Tested on: MOLM-13 cells
# assay remarks: MOLM-13 Cellular Assay
# Type: cell-based
# details: Homo sapiens, MOLM-13, 72 h, read-out: MOLM-13 Cellular Assay EC50 (nM)
Entries whose EC50 is below 10 nM take T; entries at or above 10 nM take F.

Say whether its EC50 is strictly beneath 10 nM. Entry: "C[C@H](Oc1cc(NC(=O)N2CC(O)C2)c(F)cc1C(=O)Nc1c(F)cccc1Cl)C(F)(F)F"
F

Say whether its EC50 is strictly beneath 10 nM. Entry: "Cc1ccnc(Cl)c1NC(=O)c1cc(F)c(NC(=O)N2CCC[C@@H]2CO)cc1O[C@@H](C)C(F)(F)F"
T

Say whether its EC50 is strictly beneath 10 nM. Entry: "CCN(CC(F)F)C(=O)Nc1cc(O[C@@H](C)C(F)(F)F)c(C(=O)Nc2c(C)cnc(OC)c2C)cc1F"
F

Say whether its EC50 is strictly beneath 10 nM. Entry: "COc1ncc(C)c(NC(=O)c2cc(F)c(NC(=O)N3CCC[C@@H]3CO)cc2O[C@@H](C)C(F)(F)F)c1C"
F

Say whether its EC50 is strictly beneath 10 nM. Entry: "CCN(CCO)C(=O)Nc1cc(O[C@@H](C)C(F)(F)F)c(C(=O)Nc2c(F)cccc2Cl)cc1F"
T

Say whether its EC50 is strictly beneath 10 nM. Entry: "C[C@H](Oc1cc(NC(=O)N2CC(CF)C2)c(F)cc1C(=O)Nc1c(F)cccc1Cl)C(F)(F)F"
F

Say whether its EC50 is strictly beneath 10 nM. Entry: "CC(C)NC(=O)Nc1cc(O[C@@H](C)C(F)(F)F)c(C(=O)Nc2c(F)cccc2Cl)cc1F"
F

Say whether its EC50 is strictly beneath 10 nM. Entry: "CCN(CC(F)F)C(=O)Nc1cc(O[C@@H](C)C(F)(F)F)c(C(=O)Nc2c(C)cnc(OC)c2Cl)cc1F"
T

Say whether its EC50 is strictly beneath 10 nM. Entry: C[C@H](Oc1cc(NC(=O)N2CCC(O)C2)c(F)cc1C(=O)Nc1c(F)cccc1Cl)C(F)(F)F (some centres unmarked)
F

Say whether its EC50 is strictly beneath 10 nM. Entry: "CCN(CC(F)F)C(=O)Nc1cc(O[C@@H](C)C(F)(F)F)c(C(=O)Nc2c(C)n[nH]c2Cl)cc1F"
F

Say whether its EC50 is strictly beneath 10 nM. Entry: C[C@H](Oc1cc(NC(=O)N2CCC(F)C2)c(F)cc1C(=O)Nc1c(F)cccc1Cl)C(F)(F)F (some centres unmarked)
T

Say whether its EC50 is strictly beneath 10 nM. Entry: "C[C@H](Oc1cc(NC(=O)N2CCCCC2)c(F)cc1C(=O)Nc1c(F)cccc1Cl)C(F)(F)F"
F

Say whether its EC50 is strictly beneath 10 nM. Entry: C[C@H](Oc1cc(NC(=O)N2CCC(CO)C2)c(F)cc1C(=O)Nc1c(F)cccc1Cl)C(F)(F)F (some centres unmarked)
F

Say whether its EC50 is strictly beneath 10 nM. Entry: "Cc1n[nH]c(Cl)c1NC(=O)c1cc(F)c(NC(=O)N2CCC[C@@H]2CO)cc1O[C@@H](C)C(F)(F)F"
F

Say whether its EC50 is strictly beneath 10 nM. Entry: "COc1ncc(C)c(NC(=O)c2cc(F)c(NC(=O)N3CCC[C@@H]3CO)cc2O[C@@H](C)C(F)(F)F)c1Cl"
T

Say whether its EC50 is strictly beneath 10 nM. Entry: "CCN(CC(F)F)C(=O)Nc1cc(O[C@@H](C)C(F)(F)F)c(C(=O)Nc2c(F)cccc2Cl)cc1F"
T

Say whether its EC50 is strictly beneath 10 nM. Entry: "C[C@H](Oc1cc(NC(=O)N(C)CC#N)c(F)cc1C(=O)Nc1c(F)cccc1Cl)C(F)(F)F"
F
